Hello, the source for this data is the supplement of paper PMC8149375, in case you need it.

System: SN12C
Test: GI50 of drug in presence of dasatinib; higher = less potent
Conditions: treatment: drug + dasatinib (fixed dose, not stated); 5 days
Decide using GI50 of drug alone. Strictly below 2 µM: 1 (yes). Equal to or above 2 µM: 0 (no).

Answered examples (8):
INSERT INTO measurements (compound, qualitativelabel) VALUES
  ('C=CC(=O)Nc1cccc(Sc2nc(Nc3ccc(N4CCN(C)CC4)cc3)ncc2Cl)c1 [WZ8040] + Cc1nc(Nc2ncc(C(=O)Nc3c(C)cccc3Cl)s2)cc(N2CCN(CCO)CC2)n1', '0 (no)'),
  ('O=c1cc(N2CCOCC2)oc2c(-c3ccccc3)cccc12 + Cc1nc(Nc2ncc(C(=O)Nc3c(C)cccc3Cl)s2)cc(N2CCN(CCO)CC2)n1', '0 (no)'),
  ('COc1cc(Nc2ncc3c(n2)-c2ccc(Cl)cc2C(c2c(F)cccc2OC)=NC3)ccc1C(=O)O [MLN8237 (Alisertib)] + Cc1nc(Nc2ncc(C(=O)Nc3c(C)cccc3Cl)s2)cc(N2CCN(CCO)CC2)n1', '1 (yes)'),
  ('Cc1[nH]c(/C=C2\C(=O)Nc3ccc(S(=O)(=O)Cc4c(Cl)cccc4Cl)cc32)c(C)c1C(=O)N1CCC[C@@H]1CN1CCCC1 + Cc1nc(Nc2ncc(C(=O)Nc3c(C)cccc3Cl)s2)cc(N2CCN(CCO)CC2)n1', '0 (no)'),
  ('Cc1ccc([N+](=O)[O-])cc1S(=O)(=O)N(C)/N=C/c1cnc2ccc(Br)cn12.Cl [PIK-75] + Cc1nc(Nc2ncc(C(=O)Nc3c(C)cccc3Cl)s2)cc(N2CCN(CCO)CC2)n1', '1 (yes)'),
  ('CC(C)(C)c1cc(NC(=O)Nc2ccc(-c3cn4c(n3)sc3cc(OCCN5CCOCC5)ccc34)cc2)no1 [Quizartinib (AC220)] + Cc1nc(Nc2ncc(C(=O)Nc3c(C)cccc3Cl)s2)cc(N2CCN(CCO)CC2)n1', '0 (no)'),
  ('CC(C)(C)c1cc(C=C(C#N)C#N)cc(Br)c1O [AG-1024] + Cc1nc(Nc2ncc(C(=O)Nc3c(C)cccc3Cl)s2)cc(N2CCN(CCO)CC2)n1', '0 (no)'),
  ('O=C1NC(=O)C(=Cc2ccc(-c3ccc(F)cc3)o2)S1 (stereo in doubt) + Cc1nc(Nc2ncc(C(=O)Nc3c(C)cccc3Cl)s2)cc(N2CCN(CCO)CC2)n1', '0 (no)');

Exercise: Say whether its GI50 of drug is strictly beneath 2 µM. Entry: COC(=O)c1ccc2c(c1)NC(=O)/C2=C(\Nc1ccc(N(C)C(=O)CN2CCN(C)CC2)cc1)c1ccccc1 [BIBF1120 (Vargatef)] + Cc1nc(Nc2ncc(C(=O)Nc3c(C)cccc3Cl)s2)cc(N2CCN(CCO)CC2)n1
Key: 0 (no)

Exercise: Say whether its GI50 of drug is strictly beneath 2 µM. Entry: O=C(O)c1ccc2c(c1)nc(Nc1cccc(Cl)c1)c1ccncc12 [cx-4945 (Silmitasertib)] + Cc1nc(Nc2ncc(C(=O)Nc3c(C)cccc3Cl)s2)cc(N2CCN(CCO)CC2)n1
Key: 0 (no)
